Numbers sourced from PubChem BioAssay (NCI).

Property: TGI; scope: individual compounds
# Test system: MDA-MB-231 breast
# Assay Protocol: NCI tumour cell line growth inhibition, 48 h

{"columns": ["Compound", "System Under Test", "TGI"],
 "data": [
  ["O=C1c2ccccc2C(=O)c2c(OCC3CO3)ccc(OCC3CO3)c21 (stereo not given)", "MDA-MB-231 breast", "> 34 µM"],
  ["COc1ccc(-c2oc3c(CC(=O)O)cccc3c(=O)c2OC)cc1", "MDA-MB-231 breast", "> 100 µM"],
  ["COC1Cc2c(C)c(OC(C)=O)c3cccnc3c2O1 (stereo not given)", "MDA-MB-231 breast", "> 100 µM"],
  ["COC(=O)c1ccccc1C1CN=NC12Cc1c(C)cc(C)cc1C2=O (stereo not given)", "MDA-MB-231 breast", "> 100 µM"],
  ["CN1CCN(C(=O)c2ccc(NC(=O)Nc3ccc(N(C)c4ccnc(Nc5ccc(CS(C)(=O)=O)cc5)n4)cc3)cc2)CC1", "MDA-MB-231 breast", "> 25 µM"]
]}
